Molecular target: huLTBP1 proTGFβ1 (Homo sapiens, UniProt P01137+Q14766)
Sequence (P01137 30-390): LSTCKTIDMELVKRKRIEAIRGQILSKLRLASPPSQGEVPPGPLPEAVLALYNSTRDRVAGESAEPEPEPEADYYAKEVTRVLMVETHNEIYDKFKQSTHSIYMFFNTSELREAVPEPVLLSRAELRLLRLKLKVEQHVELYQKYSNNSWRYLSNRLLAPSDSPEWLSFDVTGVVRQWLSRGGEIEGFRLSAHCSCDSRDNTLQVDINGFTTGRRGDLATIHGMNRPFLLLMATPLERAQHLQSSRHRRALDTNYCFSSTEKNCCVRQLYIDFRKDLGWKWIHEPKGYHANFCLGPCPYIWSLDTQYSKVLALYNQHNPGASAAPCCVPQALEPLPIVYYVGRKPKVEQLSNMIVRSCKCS
Sequence (Q14766 347-1721 limits assumed): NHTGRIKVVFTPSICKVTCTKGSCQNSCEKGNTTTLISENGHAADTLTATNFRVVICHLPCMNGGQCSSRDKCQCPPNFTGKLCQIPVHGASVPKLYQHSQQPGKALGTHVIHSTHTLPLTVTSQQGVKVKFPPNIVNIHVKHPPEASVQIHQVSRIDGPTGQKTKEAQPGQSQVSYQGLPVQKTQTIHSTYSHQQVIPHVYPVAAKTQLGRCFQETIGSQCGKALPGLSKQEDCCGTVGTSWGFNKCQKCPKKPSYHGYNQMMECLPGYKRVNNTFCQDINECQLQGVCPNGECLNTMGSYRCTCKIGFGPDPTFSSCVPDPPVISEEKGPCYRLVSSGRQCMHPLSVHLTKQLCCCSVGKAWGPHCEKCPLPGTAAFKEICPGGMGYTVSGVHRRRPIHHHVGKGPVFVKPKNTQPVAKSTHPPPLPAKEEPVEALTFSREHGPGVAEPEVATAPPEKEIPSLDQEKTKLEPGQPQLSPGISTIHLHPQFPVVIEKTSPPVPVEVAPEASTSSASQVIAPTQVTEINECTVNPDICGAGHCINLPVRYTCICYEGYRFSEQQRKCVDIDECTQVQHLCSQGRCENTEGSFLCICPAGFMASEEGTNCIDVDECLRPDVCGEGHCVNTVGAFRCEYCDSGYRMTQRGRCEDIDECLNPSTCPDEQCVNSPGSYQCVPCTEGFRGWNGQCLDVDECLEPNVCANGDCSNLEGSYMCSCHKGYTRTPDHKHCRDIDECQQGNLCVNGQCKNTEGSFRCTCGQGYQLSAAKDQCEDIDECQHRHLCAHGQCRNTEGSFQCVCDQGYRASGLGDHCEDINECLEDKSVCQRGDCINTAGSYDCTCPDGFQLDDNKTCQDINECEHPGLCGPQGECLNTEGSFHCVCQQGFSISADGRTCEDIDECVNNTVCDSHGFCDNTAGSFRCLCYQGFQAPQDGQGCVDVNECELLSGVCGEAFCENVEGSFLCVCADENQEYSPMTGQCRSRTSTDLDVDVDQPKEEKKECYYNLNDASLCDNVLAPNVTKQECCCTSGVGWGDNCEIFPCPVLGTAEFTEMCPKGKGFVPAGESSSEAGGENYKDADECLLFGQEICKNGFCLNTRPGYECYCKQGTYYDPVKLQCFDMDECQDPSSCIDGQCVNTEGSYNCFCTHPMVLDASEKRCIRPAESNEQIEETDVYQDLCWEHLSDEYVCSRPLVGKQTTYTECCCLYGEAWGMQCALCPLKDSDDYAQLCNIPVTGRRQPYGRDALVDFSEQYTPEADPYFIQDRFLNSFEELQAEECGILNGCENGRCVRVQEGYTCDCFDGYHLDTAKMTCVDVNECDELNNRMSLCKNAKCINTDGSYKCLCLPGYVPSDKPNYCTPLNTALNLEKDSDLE
Test: SPR (Biacore 8K) monovalent binding kinetics of Fabs, biotinylated antigen captured
Design: biotin (complex biotinylated)
Conditions: Fab, huLTBP1 proTGFβ1; SR-AB42-HuFab average of five, SR-AB63-HuFab average of four replicate experiments
Measurement Type: ka (M⁻¹ s⁻¹)
Give bare numbers, in M⁻¹ s⁻¹.

Example cases with answers are listed next.
SR-AB53-HuFab (antibody, V domains shown) VH: QVQLVESGGGVVQPGRSLRLSCAASGFTFRSYVMHWVRQAPGKGLEWVAVISHEGSGKYYADSVKGRFTISRDNSKNTLYLQMNSLRAEDTAVYYCARPRIAARRGGFGTWGQGTLVTVSS VL: NFMLTQPHSVSESPGKTVTISCTRSSGNIDYNYVQWYQQRPGSSPTTVIYEDNVRPSGVPDRFSGSIDSSSNSASLTISGLKTEDEADYYCQGYDWDTQGVVFGGGTKLTVL
1.82e+06
SR-AB57-HuFab (antibody, V domains shown) VH: QVQLVESGGGVVQPGRSLRLSCAASGFTFRSYVMHWVRQAPGKGLEWVAVISHEGSGKYYADSVKGRFTISRDNSKNTLYLQMNSLRAEDTAVYYCALPRIAARRGGFGSWGQGTLVTVSS VL: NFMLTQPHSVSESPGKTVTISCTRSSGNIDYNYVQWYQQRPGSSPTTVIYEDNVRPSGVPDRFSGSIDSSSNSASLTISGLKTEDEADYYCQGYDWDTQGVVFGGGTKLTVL
1.35e+06
SR-AB43-HuFab: human Fab fragment of SR-AB43 used in SPR (antibody, V domains shown) VH: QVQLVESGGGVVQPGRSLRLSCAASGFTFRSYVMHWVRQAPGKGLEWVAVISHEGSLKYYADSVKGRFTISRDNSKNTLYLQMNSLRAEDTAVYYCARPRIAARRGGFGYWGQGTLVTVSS VL: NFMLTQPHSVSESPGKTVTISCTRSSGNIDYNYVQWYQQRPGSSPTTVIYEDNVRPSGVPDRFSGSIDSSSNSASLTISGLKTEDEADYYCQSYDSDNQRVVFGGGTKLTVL
1.03e+06
SR-AB55-HuFab (antibody, V domains shown) VH: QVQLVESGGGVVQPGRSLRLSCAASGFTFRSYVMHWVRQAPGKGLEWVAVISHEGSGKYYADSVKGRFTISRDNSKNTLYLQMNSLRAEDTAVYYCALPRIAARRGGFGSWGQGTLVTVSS VL: NFMLTQPHSVSESPGKTVTISCTRSSGNIDYNYVQWYQQRPGSSPTTVIYEDNVRPSGVPDRFSGSIDSSSNSASLTISGLKTEDEADYYCQSYDYDNQAVVFGGGTKLTVL
862000

API: the following record is the query input.
Recorded ka for SR-AB63-HuFab: human Fab fragment of SR-AB63 used in SPR (antibody, V domains shown) VH: QLQLQESGPGLVKPSETLSLTCTVSGGSIRSSSYYWGWIRQPPGKGLEWIGSISYSATTYYNPSLKSRVTISVDTSKNQFSLKLSSVTAADTAVYYCAGDPSYDSIAGMQVWGQGTTVTVSS VL: DIQLTQSPSSLSASVGDRVTITCRASQSISSYLNWYQQKPGKAPKLLIYAASNLQSGVPSRFSGSGSGTDFTLTISSLQPEDFATYYCQQSFDWPLTFGGGTKVEIK , please?
371000

Hello, the source for this data is patent US11214614B2, in case you need it.
